assayed_system: human CD3 on cells (human PBMC; Jurkat TCR/CD3 NFAT reporter cells) (human, UniProt P07766 23-207; P04234 22-171; P09693 23-182)
Sequence (P07766 23-207, chain 1 of 3): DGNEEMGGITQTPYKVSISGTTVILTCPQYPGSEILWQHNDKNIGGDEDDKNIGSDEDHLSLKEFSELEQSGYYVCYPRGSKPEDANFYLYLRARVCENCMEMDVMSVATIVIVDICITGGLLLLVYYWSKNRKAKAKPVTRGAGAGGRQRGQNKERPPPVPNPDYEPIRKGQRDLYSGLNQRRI
Sequence (P04234 22-171, chain 2 of 3): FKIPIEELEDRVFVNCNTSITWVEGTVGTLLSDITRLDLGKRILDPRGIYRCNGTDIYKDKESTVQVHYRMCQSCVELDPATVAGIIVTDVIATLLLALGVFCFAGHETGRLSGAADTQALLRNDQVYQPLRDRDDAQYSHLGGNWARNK
Sequence (P09693 23-182, chain 3 of 3): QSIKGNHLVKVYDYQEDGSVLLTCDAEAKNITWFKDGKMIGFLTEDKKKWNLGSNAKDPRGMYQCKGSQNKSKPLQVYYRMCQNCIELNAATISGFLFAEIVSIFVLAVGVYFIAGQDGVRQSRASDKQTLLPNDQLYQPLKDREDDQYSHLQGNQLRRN
method_notes: cell-based or functional assay
metric: CD3-NFAT Activity by CD3 mAb

Recorded results for 4 binders are shown here.
>>> result("Hu155A9B1-15 (antibody, V domains shown, humanized mAb) VH: EVQLQESGPGLVKPSETLSLTCTVSGGSISSYNVHWVRQPPGKGLEWMGRVRYNGDTSYNSALKSRLTISRDTSKNQFSLKLSSVTAADTAVYYCARGPYGGSSEPLFDYWGQGTMVTVSS VL: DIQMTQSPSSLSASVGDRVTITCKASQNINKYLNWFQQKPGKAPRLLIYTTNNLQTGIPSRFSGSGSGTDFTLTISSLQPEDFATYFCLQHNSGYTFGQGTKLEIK")
"≤ 50 % SP34"
>>> result("Hu153A6B1-3 (antibody, V domains shown, humanized mAb) VH: EVQLQESGPGLVKPSETLSLTCTVSGGSISSYNIHWVRQPPGKGLEWMGRIRYNGDTSYNSALKSRLTISRDTSKNQFSLKLSSVTAADTAVYYCARGPYGGSREPLFDYWGQGTMVTVSS VL: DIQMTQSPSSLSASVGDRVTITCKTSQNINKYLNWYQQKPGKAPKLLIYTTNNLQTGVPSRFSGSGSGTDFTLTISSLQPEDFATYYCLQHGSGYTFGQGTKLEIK")
"≤ 50 % SP34"
>>> result("Hu192A7B9-12 (antibody, V domains shown, humanized mAb) VH: EVQLQESGPGLVKPSETLSLTCTVSGFSLTSYNVHWVRQPPGKGLEWMGRMRYNGDTSYNSALKSRLTISRDTSKNQVSLKLSSVTAADTAVYYCTRGPRGGYYSALFDYWGQGTMVTVSS VL: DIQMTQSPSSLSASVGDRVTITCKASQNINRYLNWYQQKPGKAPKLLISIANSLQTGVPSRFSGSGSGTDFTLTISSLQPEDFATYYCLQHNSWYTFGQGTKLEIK")
"> 50 % SP34"
>>> result("Hu192A7B9-8 (antibody, V domains shown, humanized mAb) VH: EVQLQESGPGLVKPSETLSLTCTVSGGSISSYNVHWVRQPPGKGLEWIGRMRYNGDTSYNSALKSRVTISRDTSKNQFSLKLSSVTAADTAVYYCARGPRGGYYSALFDYWGQGTMVTVSS VL: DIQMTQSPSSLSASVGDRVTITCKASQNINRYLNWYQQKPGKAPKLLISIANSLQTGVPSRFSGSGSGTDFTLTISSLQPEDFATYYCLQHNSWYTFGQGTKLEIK")
"> 50 % SP34"

Request: Report CD3-NFAT Activity by CD3 mAb for Hu155A9B1-6 (antibody, V domains shown, humanized mAb) VH: EVQLQESGPGLVKPSETLSLTCTVSGFSLTSYNVHWVRQPPGKGLEWMGRVRYNGDTSYNSALKSRLTISRDTSKNQASLKLSSVTAADTAVYYCTRGPYGGSSEPLFDYWGQGTMVTVSS VL: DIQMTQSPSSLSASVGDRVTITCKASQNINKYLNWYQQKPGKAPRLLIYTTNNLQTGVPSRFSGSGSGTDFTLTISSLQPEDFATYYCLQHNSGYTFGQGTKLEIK please.
Result: > 50 % SP34
